The following are reported pKi results, target or system Estrogen receptor (Homo sapiens).
pKi: −log10 of the molar value.
measured_attribute: pKi

Some compounds with recorded pKi:
{"smiles": "CCc1nc2cc(O)ccc2c(Oc2cccc(/C=C/C(=O)O)c2)c1-c1ccccc1", "system_tested": "Estrogen receptor (Homo sapiens)", "pKi": 5.80}
{"smiles": "CCc1nc2cc(O)ccc2c(Oc2ccc(/C=C/C(=O)N3CCCCC3)cc2)c1-c1ccccc1", "system_tested": "Estrogen receptor (Homo sapiens)", "pKi": 7.60}
{"smiles": "CCc1nc2cc(O)ccc2c(Oc2ccc(/C=C/C(=O)NC(C)C)cc2)c1-c1ccccc1", "system_tested": "Estrogen receptor (Homo sapiens)", "pKi": 8.00}

a. CCc1nc2cc(O)ccc2c(Oc2ccc(OCCN(C)C)cc2)c1-c1ccccc1
b. CCc1nc2cc(O)ccc2c(Oc2ccc(/C=C/C(=O)O)cc2)c1-c1cccc(C(F)(F)F)c1
Incoming: Please let me know which one, a or b , has a lower measured pKi value. Reply briefly: the label of your chosen item.
Outgoing: b

* * *

Protein target, amino acids: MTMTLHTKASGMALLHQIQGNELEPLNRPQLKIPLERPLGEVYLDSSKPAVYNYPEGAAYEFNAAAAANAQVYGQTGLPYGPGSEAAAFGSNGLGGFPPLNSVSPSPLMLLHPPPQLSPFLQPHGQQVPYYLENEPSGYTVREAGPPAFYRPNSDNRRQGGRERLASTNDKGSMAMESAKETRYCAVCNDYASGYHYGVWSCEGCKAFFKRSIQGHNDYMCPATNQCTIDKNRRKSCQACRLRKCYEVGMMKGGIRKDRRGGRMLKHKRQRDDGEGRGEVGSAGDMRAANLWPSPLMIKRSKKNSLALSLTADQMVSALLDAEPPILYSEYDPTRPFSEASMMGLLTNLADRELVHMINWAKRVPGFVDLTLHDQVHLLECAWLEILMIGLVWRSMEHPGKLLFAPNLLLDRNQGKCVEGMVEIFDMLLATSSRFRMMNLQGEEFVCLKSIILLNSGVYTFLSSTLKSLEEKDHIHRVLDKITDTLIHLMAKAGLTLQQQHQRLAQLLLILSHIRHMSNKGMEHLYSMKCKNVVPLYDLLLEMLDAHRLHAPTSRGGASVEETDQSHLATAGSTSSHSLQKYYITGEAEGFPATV
measured_attribute: MFI

Some compounds with recorded MFI:
{"smiles": "CCc1nc2cc(O)ccc2c(Oc2ccc(/C=C/C(=O)O)cc2)c1-c1ccccc1", "MFI": 1380}
{"smiles": "CC/C(=C(\\c1ccc(O)cc1)c1ccc(/C=C/C(=O)O)cc1)c1ccccc1", "MFI": 1320}
{"smiles": "CCc1nc2cc(O)ccc2c(Oc2ccc(/C=C/C(=O)O)cc2)c1-c1cccc(C(F)(F)F)c1", "MFI": 1590}
{"smiles": "CCc1nc2cc(O)ccc2c(Oc2ccc(/C=C/C(=O)N(C)C)cc2)c1-c1ccccc1", "MFI": 350}

a. CCc1nc2cc(O)ccc2c(Oc2ccc(/C=C/C(=O)NC(C)C)cc2)c1-c1ccccc1
b. CCc1nc2cc(O)ccc2c(Oc2ccc(OCCN(C)C)cc2)c1-c1ccccc1
Incoming: Please let me know which one, a or b , has a lower measured MFI value. Reply briefly: the label of your chosen item.
Outgoing: b
(b: 0, a: 710)
